Test: Soluble peptide degradation, Cells condition (LC-MS)
Format: in vitro ADME, human
Settings: human, cells or culture medium; Figure 3B heatmap; split-and-pool libraries KLVADX1X2ASAE (19 or 38 peptides per library) in media on hMSCs; 24 h; LC-MS, ratio to βFβA6; N = 2; read-out: Fraction of peptide remaining after 24 hours: hMSC Cells
Where a SMILES comes first, the peptide text is derived from it. [ ]: non-standard residue; d: D form. βAla = NCCC(=O)O
readout label: remaining at 24 h (%)

compound	readout label	units label	observed measurement
CC(=O)NCCC(=O)N[C@@H](CCCCN)C(=O)N[C@@H](CC(C)C)C(=O)N[C@H](C(=O)N[C@@H](C)C(=O)N[C@@H](CC(=O)O)C(=O)N[C@@H](CC(N)=O)C(=O)N1CCC[C@H]1C(=O)N[C@@H](C)C(=O)N[C@@H](CO)C(=O)N[C@@H](C)C(=O)N[C@@H](CCC(=O)O)C(=O)NCCC(N)=O)C(C)C [Asn-Pro] (Ac-[βAla]KLVADNPASAE[βAla]-NH2)	remaining at 24 h	%	54

====

Tested on: MMP-14
Construct: purchased antibodies.com
Test: Peptide degradation with added exogenous recombinant MMP-14 (LC-MS)
Format: in vitro ADME
Conditions: human, Figure 7 study; recombinant MMP-14 0.5 nM, 24 h, LC-MS, N = 3 with technical triplicates; read-out: peptide remaining in hUVEC conditioned media with added MMP‐14
Where a SMILES comes first, the peptide text is derived from it. [ ]: non-standard residue; d: D form. βAla = NCCC(=O)O

molecule	remaining at 24 h, 50 µM / %
CC[C@H](C)[C@H](NC(=O)CNC(=O)[C@H](CCC(N)=O)NC(=O)[C@@H]1CCCN1C(=O)CNC(=O)CCNC(C)=O)C(=O)N[C@@H](Cc1c[nH]c2ccccc12)C(=O)NCC(=O)N[C@@H](CCC(N)=O)C(=O)NCCC(N)=O [PanMMP, reference compound] (Ac-[βAla]GPQGIWGQ[βAla]-NH2)	72

====

Experiment: Soluble peptide degradation, Media condition (cell-conditioned media, LC-MS)
Type: in vitro ADME, human
Conditions: human; Figure 2B heatmap; pooled TAILS-derived soluble peptides in 24 h hUVEC-conditioned media without cells; 24 h; LC-MS, ratio to βFβA6 internal standard, 24 h / 0 h; N = 5; read-out: Fraction of peptide remaining at 24 hours: hUVEC Media
Where a SMILES comes first, the peptide text is derived from it. [ ]: non-standard residue; d: D form. βAla = NCCC(=O)O

compound	remaining at 24 h
CC[C@H](C)[C@H](NC(=O)[C@H](Cc1c[nH]cn1)NC(=O)[C@H](CCC(=O)O)NC(=O)[C@@H]1CCCN1C(=O)[C@H](Cc1ccccc1)NC(=O)[C@H](CC(N)=O)NC(=O)CCNC(C)=O)C(=O)N[C@@H](Cc1ccccc1)C(=O)N1CCC[C@H]1C(=O)N[C@@H](C)C(=O)N[C@@H](CC(C)C)C(=O)N[C@@H](C)C(=O)NCCC(N)=O [NFPEHIFPALA] (Ac-[βAla]NFPEHIFPALA[βAla]-NH2)	99%

====

# remaining at 24 h listing for each entry below
Test: Soluble peptide degradation, Media condition (cell-conditioned media, LC-MS)
Assay type: in vitro ADME, human
Settings: human; Figure 2B heatmap; pooled TAILS-derived soluble peptides in 24 h hMSC-conditioned media without cells; 24 h; LC-MS, ratio to βFβA6 internal standard, 24 h / 0 h; N = 5; read-out: Fraction of peptide remaining at 24 hours: hMSC Media
Where a SMILES comes first, the peptide text is derived from it. [ ]: non-standard residue; d: D form. βAla = NCCC(=O)O
readout label: remaining at 24 h (%)

molecule	readout label	units label	observed measurement
CC[C@H](C)[C@H](NC(=O)[C@H](CCCCN)NC(=O)[C@@H](NC(=O)[C@H](CO)NC(=O)[C@H](CO)NC(=O)[C@@H]1CCCN1C(=O)CCNC(C)=O)[C@@H](C)CC)C(=O)N[C@@H](CCCCN)C(=O)N[C@@H](CO)C(=O)N[C@@H](C)C(=O)N[C@@H](CC(=O)O)C(=O)N[C@@H](CCCCN)C(=O)NCCC(N)=O [PSSIKIKSADK] (Ac-[βAla]PSSIKIKSADK[βAla]-NH2)	remaining at 24 h	%	90
CC[C@H](C)[C@H](NC(=O)[C@@H](NC(=O)[C@H](CCSC)NC(=O)[C@@H]1CCCN1C(=O)[C@H](CCCCN)NC(=O)[C@H](CCCCN)NC(=O)CCNC(C)=O)[C@@H](C)O)C(=O)N[C@@H](C)C(=O)N[C@@H](CCCNC(=N)N)C(=O)N[C@@H](CC(C)C)C(=O)N[C@@H](CC(N)=O)C(=O)N[C@@H](C)C(=O)N[C@@H](CCCCN)C(=O)N[C@@H](CCCCN)C(=O)NCCC(N)=O [KKPMTIARLNAKK] (Ac-[βAla]KKPMTIARLNAKK[βAla]-NH2)	remaining at 24 h	%	94
CC[C@H](C)[C@H](NC(=O)CNC(=O)[C@H](CCC(N)=O)NC(=O)[C@@H]1CCCN1C(=O)CNC(=O)CCNC(C)=O)C(=O)N[C@@H](Cc1c[nH]c2ccccc12)C(=O)NCC(=O)N[C@@H](CCC(N)=O)C(=O)NCCC(N)=O [PanMMP, reference compound] (Ac-[βAla]GPQGIWGQ[βAla]-NH2)	remaining at 24 h	%	86

The reported measurements were obtained from paper PMC12683216.
